test system: TO-3-N3 (biotin conjugate); test: pull-down binding Z-score (relative to library population); higher = stronger binding; details: RNA library: Library-2
readout.type: pull-down binding Z-score
Number only, please.

- sequence.text: "UAGUCCUGUUGCACUACGACAGAUGUCUUGUGCUGCCGGUACUA [DMSMaPseq_invitro_SARS-CoV-2_Motif_226]"
  pull-down binding Z-score: -0.727

Value sought: pull-down binding Z-score, system TO-3-N3 (biotin conjugate), item GUCUAGCUGUCCACGAGUGCUUUGUUAAGCGUGUUGACUGGAC . Result: -0.128

Value sought: pull-down binding Z-score, system TO-3-N3 (biotin conjugate), item GGGCAGGGAGGGCAGGGCAGGCUCUGGGGUGGGGGGUCUGUGAGUCAGCCACGGCUC [hsa-mir-4516] . Result: 6.78

Value sought: pull-down binding Z-score, system TO-3-N3 (biotin conjugate), item AGCCACUGCGGUCGACCAUGACCUGGA [hsa-mir-619] . Result: 0.401

Value sought: pull-down binding Z-score, system TO-3-N3 (biotin conjugate), item UCUGUUGCUUGAAAGAAGAGA [hsa-mir-526a-1] . Result: 0.85

Value sought: pull-down binding Z-score, system TO-3-N3 (biotin conjugate), item UACAUGUGUUGGUAGCGAUAAUGUUACUGACUUUAAUGCAAUUGCAACAUGUG [DMSMaPseq_invitro_SARS-CoV-2_Multi_49_ComplexLevel_1] . Result: -0.662

Value sought: pull-down binding Z-score, system TO-3-N3 (biotin conjugate), item AGUGCCUCACAGCCGCACAGGACCGAGGAUGCU [hsa-mir-4737] . Result: 0.0032

Value sought: pull-down binding Z-score, system TO-3-N3 (biotin conjugate), item GCCUCUCUGAGCAUGCAUUCCUGAGACUC [hsa-mir-5695] . Result: 0.286

Value sought: pull-down binding Z-score, system TO-3-N3 (biotin conjugate), item AUCUGAAUGAUCUCAGC [hsa-mir-626] . Result: 0.58

* * *

Entries annotated with measured pull-down binding Z-score
system: TO-N3-2 (biotin conjugate); test: pull-down binding Z-score (relative to library population); higher = stronger binding; conditions: RNA library: Library-2
Number only, please.

- sequence.text: "GAAGCUGUAAGGUGUUCAGAGGAGCUUU [hsa-mir-30e]"
  target.under.test: "TO-N3-2 (biotin conjugate)"
  pull-down binding Z-score: 1.1
- sequence.text: "GGUUUCUUAAAAUGGAAUCU [hsa-mir-1255b-1]"
  target.under.test: "TO-N3-2 (biotin conjugate)"
  pull-down binding Z-score: -0.251
- sequence.text: "UGAGGAGCUUAGCAAGUAGCUAAGGCCAGA [hsa-mir-4517]"
  target.under.test: "TO-N3-2 (biotin conjugate)"
  pull-down binding Z-score: 1.1

Value of pull-down binding Z-score reported for the sequence GCUGAACCCCUGCCCCUGGAGCCCCCAGCAGGGCCCUC [hsa-mir-7162] is 1.85

Value of pull-down binding Z-score reported for the sequence UUUUGCCAUUACUUUCAAUGGCAAAA [hsa-mir-548aa-2] is -1.08

Value of pull-down binding Z-score reported for the sequence CUUUAGCUAUUCUGAAUGCCUAAAG [hsa-mir-4662a] is -0.393

Value of pull-down binding Z-score reported for the sequence CUUCUUACUGCACCAGUGAAG [hsa-mir-5683] is 0.131
